pIC50 reference
- tested.on: Mutant B-Raf (V600E) enzyme (MT B-Raf) (Homo sapiens, UniProt P15056, V600E)
- Sequence (P15056 whole entry V600E): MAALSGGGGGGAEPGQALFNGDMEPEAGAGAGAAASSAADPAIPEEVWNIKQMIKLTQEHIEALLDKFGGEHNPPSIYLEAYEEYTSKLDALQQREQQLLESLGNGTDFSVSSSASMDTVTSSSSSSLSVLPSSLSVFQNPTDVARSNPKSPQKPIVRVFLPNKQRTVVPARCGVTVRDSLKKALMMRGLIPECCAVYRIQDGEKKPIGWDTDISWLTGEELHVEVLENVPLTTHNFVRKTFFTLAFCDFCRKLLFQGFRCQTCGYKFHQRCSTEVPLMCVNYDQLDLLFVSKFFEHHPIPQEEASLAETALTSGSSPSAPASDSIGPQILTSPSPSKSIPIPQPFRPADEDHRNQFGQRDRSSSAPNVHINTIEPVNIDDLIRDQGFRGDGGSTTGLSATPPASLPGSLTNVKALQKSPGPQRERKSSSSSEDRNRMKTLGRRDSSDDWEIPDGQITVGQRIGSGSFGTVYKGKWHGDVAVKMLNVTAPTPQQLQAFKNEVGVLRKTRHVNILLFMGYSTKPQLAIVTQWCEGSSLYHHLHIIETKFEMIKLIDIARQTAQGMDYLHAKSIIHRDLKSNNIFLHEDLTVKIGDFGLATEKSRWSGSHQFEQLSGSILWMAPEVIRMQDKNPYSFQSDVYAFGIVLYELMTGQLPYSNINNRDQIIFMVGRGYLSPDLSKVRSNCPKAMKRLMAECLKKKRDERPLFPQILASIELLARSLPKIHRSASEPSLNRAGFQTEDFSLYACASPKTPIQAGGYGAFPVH
- procedure.summary: B-Raf in vitro AlphaScreen assay
- experimental.context: phosphorylation of biotinylated HIS-MEK-AVI, 24 μM ATP in mix
Hey, just a heads up that pIC50 is the negative log base 10 of the concentration in molar.

Record excerpt, results attached:
| compound | tested.on | pIC50 |
| --- | --- | --- |
| Cc1ccc(NC(=O)Nc2cccc(C(F)(F)F)c2)cc1Nc1ccc2ncn(C)c(=O)c2c1 [Example 1] | Mutant B-Raf (V600E) enzyme (MT B-Raf) (Homo sapiens, UniProt P15056, V600E) | 7.84 |
| Cc1ccc(NC(=O)Nc2ccc(Cl)c(Cl)c2)cc1Nc1ccc2ncn(C)c(=O)c2c1 [Example 2] | Mutant B-Raf (V600E) enzyme (MT B-Raf) (Homo sapiens, UniProt P15056, V600E) | 6.44 |

--- query ---
q: Which pIC50 is listed for Cc1ccc(NC(=O)Nc2cccc(C(C)(C)C#N)c2)cc1Nc1ccc2ncn(C)c(=O)c2c1 [Example 6] ?
a: 7.00
